tested on: MS2 coat protein; experiment: apparent KD of MS2 coat protein; designed switch direction (-1 OFF switch, 1 ON switch): -1; higher = weaker reporter binding; settings: input ligand: FMN 200 uM
assay_readout: apparent KD of MS2 coat protein (µM)
The figure you give is taken to be in µM; do not add the unit.

The sequence listed as GGCGAGGGAGGAUAUACGUGAUUGAUGCCGGGAACCCAGAGACAUGAGGAUCACCCAUGUAGAAGGCCCGGCUA [EX2 B.4] (Eterna round: R97, puzzle: Exclusion 2) has a reported apparent KD of MS2 coat protein of 0.0109

The sequence listed as UAUGAUUUAGGAUAUUGUACUGCUGACAUGAGGAUCACCCAUGUAUGCUAACUCGGCCGUCGAGAAGGAAAUUAUG [BotMod 28 - Jieux - Exclusion 5] (Eterna round: R97, puzzle: Exclusion 5) has a reported apparent KD of MS2 coat protein of 0.0261

The sequence listed as GGAUCGAGUGUGAGGAUAUGCUGGUCCUUGGAUCAGCAGAAGGCACAUGAGGAUCACCCAUGUGAAGACGGUCC [Copy of R95 JL bmx4 3.16] (Eterna round: R97, puzzle: Brourd's mod of Exclusion 4) has a reported apparent KD of MS2 coat protein of 0.288

The sequence listed as GGCAGGCUUGAGGAUAUGCAUAGGCUAGGCCUAGCAGAAGGCAAGACAUGAGGAUCACCCAUGUGUUCCUUGUG [jl-ex6-4.35 ViennaUCT mod] (Eterna round: R97, puzzle: Exclusion 6) has a reported apparent KD of MS2 coat protein of 0.545

The sequence listed as CUUGUUUAUGUAGGAUAUGCCUGGCGUGCCUUUGCAGAAGGACAUGAGGAUCACCCAUGUAUUGCGGUCUGCGUUCAGAUCGCU [salish99_ExNG1_r4_044] (Eterna round: R96, puzzle: Exclusion NG 1) has a reported apparent KD of MS2 coat protein of 0.0411
